# measurement_description: Cytotoxicity against multidrug resistant mouse L5178 cells after 24 hrs by MTT assay
# Type: cell-based
# run_parameters: l5178, 24 h
Activity reference

A selection of reference data follows.
| structure_string | Activity |
| --- | --- |
| COC(=O)CN1C(=O)N(CCCCN2CCN(c3ccccc3F)CC2)C2(C1=O)c1ccccc1-c1ccccc12 | 84 µM |
| COC(=O)CN1C(=O)N(CCCCN2CCN(c3ccccc3F)CC2)C(c2ccccc2)(c2ccccc2)C1=O | > 100 µM |
| COC(=O)CN1C(=O)N(CCCCN2CCN(c3ccccc3)CC2)C(c2ccccc2)(c2ccccc2)C1=O | 26 µM |

Please look at the following molecule next.
For record COC(=O)CN1C(=O)N(CCCCN2CCN(c3cccc(Cl)c3Cl)CC2)C(c2ccccc2)(c2ccccc2)C1=O the listed Activity is 40 µM

###

# target_or_test_system: ATP-dependent translocase ABCB1 (Homo sapiens)
# measurement_description: Inhibition of human MDR1 expressed in mouse L5178 cells assessed as rhodamine-123 accumulation measured as fluorescence activity ratio at 2 uM after 20 mins by flow cytometry relative to control
# Assay type: cell-based
# run_parameters: l5178, 20 min
Form field: Ratio (one value per entry).

| compound | Ratio |
| --- | --- |
| COC(=O)CN1C(=O)N(CCCN2CCN(c3ccccc3)CC2)C(c2ccccc2)(c2ccccc2)C1=O | 89.34 |
| COC(=O)CN1C(=O)N(CCCCN2CCN(c3ccccc3F)CC2)C(c2ccccc2)(c2ccccc2)C1=O | 102.74 |
| COc1ccccc1N1CCN(CC(O)CN2C(=O)N(CC(=O)O)C(=O)C2(c2ccccc2)c2ccccc2)CC1 (centres undefined) | 0.84 |

Now consider the entry below.
Per the records, this compound ( COC(=O)CN1C(=O)N(CCCCN2CCN(c3ccc(F)cc3)CC2)C2(C1=O)c1ccccc1-c1ccccc12 ) has Ratio equal to 19.4

###

# measurement_description: Cytotoxicity against sensitive mouse L5178 cells after 24 hrs by MTT assay
# Format: cell-based
# run_parameters: l5178, 24 h
measured_property: Activity (µM)
Please state the figure in µM; there is no need to write the unit.

Measured Activity, COC(=O)CN1C(=O)N(CCCCN2CCN(c3ccccc3F)CC2)C2(C1=O)c1ccccc1-c1ccccc12 : 58

Data point: COC(=O)CN1C(=O)N(CCCCN2CCN(c3ccc(F)cc3)CC2)C2(C1=O)c1ccccc1-c1ccccc12 ; Activity = 40

The value of Activity measured for the compound COC(=O)CN1C(=O)N(CCCCN2CCN(c3cccc(Cl)c3Cl)CC2)C(c2ccccc2)(c2ccccc2)C1=O turned out to be 18

###

# target_or_test_system: ATP-dependent translocase ABCB1 (Homo sapiens, UniProt P08183)
# Sequence (P08183 whole entry): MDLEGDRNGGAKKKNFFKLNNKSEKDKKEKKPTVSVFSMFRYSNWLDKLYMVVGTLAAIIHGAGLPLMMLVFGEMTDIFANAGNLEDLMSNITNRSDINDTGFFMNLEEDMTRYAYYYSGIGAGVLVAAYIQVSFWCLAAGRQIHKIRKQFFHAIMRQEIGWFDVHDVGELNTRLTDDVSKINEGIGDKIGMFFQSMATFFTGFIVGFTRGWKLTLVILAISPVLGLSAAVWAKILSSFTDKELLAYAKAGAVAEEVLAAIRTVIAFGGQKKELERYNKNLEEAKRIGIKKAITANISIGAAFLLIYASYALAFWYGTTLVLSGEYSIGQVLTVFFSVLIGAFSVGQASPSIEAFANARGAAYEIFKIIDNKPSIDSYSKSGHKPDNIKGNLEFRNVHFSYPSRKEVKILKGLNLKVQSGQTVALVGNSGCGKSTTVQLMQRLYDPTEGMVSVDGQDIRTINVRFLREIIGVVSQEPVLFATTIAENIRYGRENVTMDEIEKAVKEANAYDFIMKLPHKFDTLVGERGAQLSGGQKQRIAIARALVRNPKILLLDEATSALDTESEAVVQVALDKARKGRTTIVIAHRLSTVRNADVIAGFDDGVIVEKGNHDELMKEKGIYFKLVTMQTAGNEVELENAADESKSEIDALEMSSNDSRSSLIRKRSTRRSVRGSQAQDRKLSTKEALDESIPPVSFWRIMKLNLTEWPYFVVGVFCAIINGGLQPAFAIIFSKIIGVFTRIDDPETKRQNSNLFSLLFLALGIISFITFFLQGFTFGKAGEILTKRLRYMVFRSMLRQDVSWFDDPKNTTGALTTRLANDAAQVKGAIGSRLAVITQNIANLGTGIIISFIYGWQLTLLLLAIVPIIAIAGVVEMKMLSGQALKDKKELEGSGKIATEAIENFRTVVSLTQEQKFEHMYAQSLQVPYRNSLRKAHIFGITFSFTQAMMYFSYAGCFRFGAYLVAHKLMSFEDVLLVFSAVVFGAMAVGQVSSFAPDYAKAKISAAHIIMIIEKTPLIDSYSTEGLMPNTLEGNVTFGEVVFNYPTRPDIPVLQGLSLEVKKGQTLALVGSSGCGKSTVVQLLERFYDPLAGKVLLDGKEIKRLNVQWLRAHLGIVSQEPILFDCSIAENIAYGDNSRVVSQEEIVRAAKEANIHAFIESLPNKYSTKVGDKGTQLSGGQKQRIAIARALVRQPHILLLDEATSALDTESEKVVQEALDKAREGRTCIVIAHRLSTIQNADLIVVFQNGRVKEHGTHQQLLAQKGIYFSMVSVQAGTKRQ
# measurement_description: Inhibition of human MDR1 expressed in mouse L5178 cells assessed as rhodamine-123 accumulation measured as fluorescence activity ratio at 2 uM after 20 mins by flow cytometry relative to control
# Assay type: cell-based
# run_parameters: l5178, 20 min
measured_property: Ratio
// return just the number, without any unit appended

Past entries and their recorded results:
| molecule | Ratio |
| --- | --- |
| COc1ccccc1N1CCN(CCCCN2C(=O)N(CC(=O)O)C(=O)C2(c2ccccc2)c2ccccc2)CC1 | 1 |
| COC(=O)CN1C(=O)N(CCCCN2CCN(c3cccc(Cl)c3Cl)CC2)C(c2ccccc2)(c2ccccc2)C1=O | 132.85 |
| COC(=O)CN1C(=O)N(CCCCN2CCN(c3ccccc3F)CC2)C2(C1=O)c1ccccc1-c1ccccc12 | 35.38 |
| COC(=O)CN1C(=O)N(CCCCN2CCN(c3ccccc3)CC2)C2(C1=O)c1ccccc1-c1ccccc12 | 21.61 |
| COC(=O)CN1C(=O)N(CCCCN2CCN(c3ccccc3)CC2)C(c2ccccc2)(c2ccccc2)C1=O | 77.15 |
| COC(=O)CN1C(=O)N(CC(O)CN2CCN(c3ccccc3)CC2)C(c2ccccc2)(c2ccccc2)C1=O (stereo not drawn) | 72.64 |
| O=C(O)CN1C(=O)N(CCCCN2CCN(C(=O)c3ccco3)CC2)C2(C1=O)c1ccccc1-c1ccccc12 | 0.68 |

Let's switch to this molecule now.
Value of measured Ratio for the entry COC(=O)CN1C(=O)N(CCCCN2CCN(C(=O)c3ccco3)CC2)C2(C1=O)c1ccccc1-c1ccccc12 : 1.86
